# test-details: Aqueous solubility assay (PBS, pH 7.4)
# Type: physicochemical
# condition-set: isotonic buffer pH 7.4, aqueous buffer, kinetic from dmso stock, buffered aqueous solution at pH 7.4, 200 μM nominal, 2% DMSO, room temperature

cpd-smiles	solubility kinetic at 24 h (µM)
CCc1ccc(-c2n[nH]c3nc(-c4ccc(C(=O)O)cc4)cc(C(=O)O)c23)cc1	179

----------
# experimental-target: OXA-48 (Klebsiella pneumoniae)
# Construct: made in house; host or cells: E. coli BL21(DE3), T7 expression system
# test-details: OXA-48 primary enzymatic assay (nitrocefin substrate, fluorescence-quenching readout)
# Type: biochemical
# condition-set: dose–response, median of triplicate wells; 15 min preincubation, 25 µM nitrocefin
In plain terms, low AC50, meaning strictly below 20 µM, gives met, and everything else gives not met.

compound	discrete-label
CCc1ccc(-c2n[nH]c3nc(-c4ccc(C(=O)O)cc4F)cc(C(=O)O)c23)cc1 [Compound 2]	met
CCc1ccc(-c2n[nH]c3nc(-c4cc(F)c(O)c(Cl)c4)cc(C(=O)O)c23)cc1 [Compound 9]	not met
CCc1ccc(-c2n[nH]c3nc(-c4cc(F)c(O)c(F)c4)cc(C(=O)O)c23)cc1 [Compound 6]	not met
CCc1ccc(-c2n[nH]c3nc(-c4ccc(CC(=O)O)cc4)cc(C(=O)O)c23)cc1 [Compound 4]	met
Sc1nnc(-c2ccccc2)n1/N=C/c1cccs1 [ID23]	not met

----------
# experimental-target: OXA-48 (Klebsiella pneumoniae)
# Construct: made in house; host or cells: E. coli BL21(DE3), T7 expression system
# test-details: OXA-48 primary enzymatic assay (nitrocefin substrate, fluorescence-quenching readout)
# Format: biochemical
# condition-set: dose–response, median of triplicate wells; 15 min preincubation, 25 µM nitrocefin
// assign condition met if AC50 falls strictly below 20 µM, else condition not met (ties count as condition not met)

molecule	discrete-label
CCc1ccc(-c2n[nH]c3nc(-c4ccc(C(=O)O)c(F)c4)cc(C(=O)O)c23)cc1	condition met
O=C(O)c1ccc(/C=N/n2c(S)nnc2C2CCCCC2)cc1	condition met
CCc1ccc(-c2n[nH]c3nc(-c4ccc(O)c(F)c4F)cc(C(=O)O)c23)cc1	condition not met
O=C(O)c1ccc(/C=N/n2cnnc2S)cc1	condition met
COC(=O)c1ccc(/C=N/n2c(S)nnc2-c2ccccc2)cc1	condition not met
CCc1ccc(-c2n[nH]c3nc(-c4ccccc4)cc(C(=O)O)c23)cc1	condition not met
C[C@]1(Cn2ccnn2)[C@H](C(=O)O)N2C(=O)C[C@H]2S1(=O)=O [tazobactam, reference compound]	condition met
CCc1ccc(-c2n[nH]c3nc(-c4ccc(C(=O)O)cc4)cc(C(F)(F)F)c23)cc1	condition not met
CCc1ccc(-c2n[nH]c3nc(-c4ccc(C(=O)O)cc4)ccc23)cc1	condition not met

----------
# experimental-target: OXA-48 (Klebsiella pneumoniae, UniProt Q6XEC0)
# Construct: made in house; host or cells: E. coli BL21(DE3), T7 expression system
# Sequence (Q6XEC0 23-265, looked up): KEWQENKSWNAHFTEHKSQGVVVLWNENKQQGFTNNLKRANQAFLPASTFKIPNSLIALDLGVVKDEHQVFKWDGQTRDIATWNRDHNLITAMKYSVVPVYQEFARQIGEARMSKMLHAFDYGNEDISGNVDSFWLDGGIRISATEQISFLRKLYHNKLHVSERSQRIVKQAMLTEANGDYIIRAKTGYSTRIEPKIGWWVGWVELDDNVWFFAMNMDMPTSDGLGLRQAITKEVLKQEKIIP
# test-details: OXA-48 primary enzymatic assay (nitrocefin substrate, fluorescence-quenching readout)
# Assay type: biochemical
# condition-set: dose–response, median of triplicate wells; 15 min preincubation, 25 µM nitrocefin
# Protocol: After an initial pilot run (three plates, consisting of 960 randomly selected compounds), the primary screening of the subset plates was carried out at 20 µM in single point against OXA-48 enzyme in a nitrocefin-based assay, using the fluorescence-quenching readout. […] Chromogenic nitrocefin is hydrolyzed by β-lactamases to yield a product with increased absorbance properties (~495 nm) that quenches the plate fluorescence by absorbing the plate’s emission light. […]

cpd-smiles	OXA-48 AC50
CCc1ccc(-c2n[nH]c3nc(-c4ccccc4O)cc(C(=O)O)c23)cc1	inactive
CCc1ccc(-c2n[nH]c3nc(-c4ccccc4)cc(C(=O)O)c23)cc1	inactive

Cited source: paper PMC8308845
